Data origin, for the record: patent US20250297032A1

Molecular target: T1, human FAPα on CHO-K1-hFAPα cells (human, UniProt Q12884 1-760)
T1 construct: whole, on cells; also called cell-surface FAPα
T1 sequence (looked up): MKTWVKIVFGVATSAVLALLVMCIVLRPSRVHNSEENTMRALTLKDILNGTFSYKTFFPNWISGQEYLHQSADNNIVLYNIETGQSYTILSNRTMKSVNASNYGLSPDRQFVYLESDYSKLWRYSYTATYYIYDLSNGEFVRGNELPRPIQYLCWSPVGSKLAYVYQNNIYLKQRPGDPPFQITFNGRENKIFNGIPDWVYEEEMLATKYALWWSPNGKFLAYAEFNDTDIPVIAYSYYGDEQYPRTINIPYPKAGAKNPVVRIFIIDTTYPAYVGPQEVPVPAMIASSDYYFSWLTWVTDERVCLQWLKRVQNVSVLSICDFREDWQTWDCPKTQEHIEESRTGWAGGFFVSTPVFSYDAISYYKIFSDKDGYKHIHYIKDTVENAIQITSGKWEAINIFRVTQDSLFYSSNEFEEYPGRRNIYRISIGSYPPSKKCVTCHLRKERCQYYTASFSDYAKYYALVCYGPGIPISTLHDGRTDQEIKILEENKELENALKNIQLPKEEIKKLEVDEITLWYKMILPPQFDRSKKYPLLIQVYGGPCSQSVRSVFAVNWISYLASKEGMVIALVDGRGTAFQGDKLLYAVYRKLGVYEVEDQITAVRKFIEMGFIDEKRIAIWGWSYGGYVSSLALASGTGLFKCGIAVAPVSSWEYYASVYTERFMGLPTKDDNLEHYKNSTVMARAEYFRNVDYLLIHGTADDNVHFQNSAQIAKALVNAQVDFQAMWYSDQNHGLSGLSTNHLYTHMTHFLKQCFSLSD
Test: flow cytometry on CHO-K1-hFAPα cells (MFI of PE)
Parameters: unit not given beside the values
attribute_measured: Cmax
Reply: number alone, nothing else.

Query string: What value of measured Cmax is listed for I37 (antibody, V domains shown, Tested as a mAb; also called FAP-I37) VH: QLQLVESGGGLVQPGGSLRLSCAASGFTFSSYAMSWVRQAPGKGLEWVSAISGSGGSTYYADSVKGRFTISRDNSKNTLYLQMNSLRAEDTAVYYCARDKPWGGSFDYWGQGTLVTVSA VL: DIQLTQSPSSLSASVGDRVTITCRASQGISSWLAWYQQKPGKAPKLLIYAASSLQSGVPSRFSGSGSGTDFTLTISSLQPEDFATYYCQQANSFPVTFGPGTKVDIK ?
Result string: 465
